# credit: PubChem BioAssay

Assay: small-molecule binders of probe aNOTCH2, primary screen, biochemical, small-molecule microarray, 635/667 nm fluorescence (AID 1121);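 further: score merges feature fluorescence read at 667 nm with its signal to noise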
Details: higher = more signal
Recorded endpoint: composite z-score
Answers are plain numbers.

Molecule | Recorded number
O=C1OCCC/C=C\[C@H]2OC34C=CCN(Cc5ccccc5)C(=O)[C@H]3N(CCCO)C(=O)[C@@H]4C12 (stereo partly drawn) | -0.104
COCCOC(=O)N1C(=O)[C@@]2(c3cc(C#CCC(C(=O)OC)C(=O)OC)ccc31)[C@H](C(=O)N1CCN(c3ncccn3)CC1)[C@H]1C(=O)O[C@H](c3ccccc3)[C@H](c3ccccc3)N1[C@@H]2c1ccccc1OCCO | -0.147

query: What value of composite z-score has been reported for the following molecule? "COC(=O)[C@@]1(Cc2ccc(OC)cc2)[C@H]2c3cc(C(=O)N4CCCC4)n(Cc4ccc(O)c(OC)c4)c3C[C@H]2CN1C(=O)c1ccccc1"
result: 0.437
